# Test system: HOS
# testProtocol: Cytotoxicity against human HOS cells assessed as ATP level by luciferase reporter assay
# Assay type: cell-based
propertyName: CC50 (µM)
Respond numerically; units are µM and should not be typed.

The cases that follow already have their CC50 on record.
>>> print(df.to_string())
                             compoundstring  measuredresult
0  NCCNc1c(C(=O)NCc2ccc(F)cc2F)c(=O)n(O)c2ncccc12             9.6
1  O=C(NCc1ccc(F)cc1F)c1c(NCCO)c2cccnc2n(O)c1=O              24
2  CCOC(=O)[C@@H]1CCCN1c1c(C(=O)NCc2ccc(F)cc2F)c(=O)n(O)c2ncccc12              18

Attention now shifts to the item below.
Entry `O=C(NCc1ccc(F)cc1F)c1c(N2CCOCC2)c2cccnc2n(O)c1=O` — recorded CC50 = 8.4

---

# Tested on: Human immunodeficiency virus 1
# testProtocol: Antiviral activity against HIV-1 harboring wild type integrase infected in human HOS cells pretreated with compound for 3 hrs by single-round HIV-1 infectivity assay
# Assay type: functional, organism-based
# runParameters: Human immunodeficiency virus 1, HOS
propertyName: pEC50
Note on pEC50: it is the negative log10 of concentration, concentration in mol/L.

                                   compound  propertyname  measuredresult
0  CCCCCNc1c(C(=O)NCc2ccc(F)cc2F)c(=O)n(O)c2ncccc12         pEC50            8.13
1  COC(=O)[C@@H](C)Nc1c(C(=O)NCc2ccc(F)cc2F)c(=O)n(O)c2ncccc12         pEC50            7.95
2  C[C@@H]1CCO[C@H]2Cn3cc(C(=O)NCc4ccc(F)cc4F)c(=O)c(O)c3C(=O)N12 [DOLUTEGRAVIR]         pEC50            8.80
3  COC(=O)[C@H](Nc1c(C(=O)NCc2ccc(F)cc2F)c(=O)n(O)c2ncccc12)c1ccccc1         pEC50            8.13
4  O=C(NCc1ccc(F)cc1F)c1c(NCCc2ccccc2)c2cccnc2n(O)c1=O         pEC50            7.85

Entry `O=C(NCc1ccc(F)cc1F)c1c(Nc2ccccc2)c2cccnc2n(O)c1=O` — recorded pEC50 = 7.85

Entry `COC(=O)[C@@H](CO)Nc1c(C(=O)NCc2ccc(F)cc2F)c(=O)n(O)c2ncccc12` — recorded pEC50 = 7.85

Entry `COC(=O)[C@H](C)Nc1c(C(=O)NCc2ccc(F)cc2F)c(=O)n(O)c2ncccc12` — recorded pEC50 = 8.38

---

Measured CC50 of individual entries
# Tested on: HOS
# testProtocol: Cytotoxicity against human HOS cells assessed as ATP level by luciferase reporter assay
# Format: cell-based
Respond numerically; units are µM and should not be typed.

The cases that follow already have their CC50 on record.
>>> print(df.to_string())
                             compoundstring  propertyname  measuredresult
0  CCCCCNc1c(C(=O)NCc2ccc(F)cc2F)c(=O)n(O)c2ncccc12          CC50              94
1  O=C(NCc1ccc(F)cc1F)c1c(NCCCCc2ccccc2)c2cccnc2n(O)c1=O          CC50             102

Attention now shifts to the item below.
Entry `CN(C)c1c(C(=O)NCc2ccc(F)cc2F)c(=O)n(O)c2ncccc12` — recorded CC50 = 13
